Source of measurements: ChEMBL document CHEMBL1132805

Target: Chymotrypsin-C (Homo sapiens)
Sequence (whole entry): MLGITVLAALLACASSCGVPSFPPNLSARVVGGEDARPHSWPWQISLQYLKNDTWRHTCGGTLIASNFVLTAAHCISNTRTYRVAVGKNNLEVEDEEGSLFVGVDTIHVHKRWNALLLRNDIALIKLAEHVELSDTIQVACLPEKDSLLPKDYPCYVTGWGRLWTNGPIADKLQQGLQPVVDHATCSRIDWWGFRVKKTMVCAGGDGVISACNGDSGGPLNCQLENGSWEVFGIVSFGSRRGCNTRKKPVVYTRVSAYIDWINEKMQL
Assay: Inhibition of human Serine protease chymotrypsin at 20 ug/mL
Would you mind telling me the reported inhibition of each entry?

Would you please look over these solved cases?
>  <Substance smiles>
O=C(CN1C(=O)C(=O)c2ccccc21)c1ccc(F)cc1

>  <Test value>
83%

$$$$
>  <Substance smiles>
O=C1C(=O)N(CC(=O)N2CCN(C(=O)Nc3cccc4ccccc34)CC2)c2ccc(Cl)cc21

>  <Test value>
82%

$$$$

For each of the compounds below, note its inhibition.
1. CCCCOC(=O)Nc1cccc(NC(=O)NC(=O)N2CCN(C(=O)CN3C(=O)C(=O)c4cc([N+](=O)[O-])ccc43)CC2)c1
2. O=C1C(=O)N(CC(=O)N2CCN(C(=O)Nc3cccc4ccccc34)CC2)c2ccc(OC(F)(F)F)cc21
3. Cc1ccc(C(=O)CN2C(=O)C(=O)c3ccccc32)cc1

87%
79%
94%
